- Tested on: MDR1
- Procedure Text: in vitro
- Condition Description: dog, MDCK-MDR1, pH 7.4, MDCK-MDR1: Papp A-B (10^−6, cm/s)
Threshold check on Papp A→B at 120 min, 5 μM: strictly below 10 ×10⁻⁶ cm/s is fulfilled; on or above 10 ×10⁻⁶ cm/s is not fulfilled.

Below, 3 compounds whose answers are already recorded.
COc1cc(-c2ccc(-c3cnc(N(C4CC4)[C@H]4C[C@@H]5CCC(N5)[C@H]4F)cn3)c(O)c2)ccn1 (single isomer, unassigned) :: fulfilled
CN(c1cnc(-c2ccc(-c3cnn(C)c3)cc2O)cn1)[C@@H]1CC2COC[C@H](N2)[C@@H]1F (single isomer, unassigned) :: not fulfilled
COc1cc(-c2cc(O)c(-c3cnc(N(C4CC4)[C@@H]4CC5CC[C@H](N5)[C@@H]4F)cn3)cc2F)cc(F)n1 (single isomer, unassigned) :: fulfilled

Proceed to the following item.
Challenge: is_below(Papp A→B at 120 min, 5 μM, 10 ×10⁻⁶ cm/s) for COc1cc(-c2cc(O)c(-c3cnc(N(C)[C@@H]4CC5N[C@H](C4)CC5(F)F)cn3)cc2F)cnn1 (single isomer, unassigned) ?
Response given: not fulfilled

---

- Tested on: MDR1
- Procedure Text: in vitro
- Condition Description: dog, MDCK-MDR1, pH 7.4, MDCK-MDR1: Papp A-B (10^−6, cm/s)
Category | rule: reported Papp A→B at 120 min, 5 μM within range, see bucket A (below 20 nm/s), bucket B (20 nm/s to below 50 nm/s), bucket C (50 nm/s or more)

Below, 8 compounds whose answers are already recorded.
COc1cc(-c2cc(O)c(-c3cnc(N(C)[C@@H]4CC5CC(F)(F)[C@@H](C4)N5)cn3)cc2F)cnn1 (single isomer, unassigned) :: bucket C
COc1cc(-c2ccc(-c3cnc(N(C)[C@@H]4C[C@@]5(C)CCC[C@](C)(N5)[C@@H]4F)cn3)c(O)c2)cnn1 :: bucket A
COc1cc(-c2ccc(-c3cnc(N(C)[C@H]4C[C@@H]5CCC(N5)[C@H]4F)cn3)c(O)c2)ncn1 (single isomer, unassigned) :: bucket C
Cn1cc(-c2cc(O)c(-c3cnc(N(C4CC4)[C@H]4C[C@@H]5CCC(N5)[C@H]4F)cn3)cc2F)cn1 (single isomer, unassigned) :: bucket B
CN(c1cnc(-c2ccc(-c3cn[nH]c3)cc2O)cn1)[C@H]1CC2N[C@@H](C1)CC2(F)F (single isomer, unassigned) :: bucket C
CN(c1cnc(-c2ccc(-c3cn[nH]c3)cc2O)cn1)[C@@H]1CC2CC[C@H](N2)[C@H]1F (single isomer, unassigned) :: bucket B
CN(c1cnc(-c2cc3oc(C(=O)N4CCC4)cc3cc2O)cn1)[C@H]1C[C@@H]2CCC(N2)[C@H]1F (single isomer, unassigned) :: bucket A
COc1cc(-c2ccc(-c3cnc(N(C)[C@H]4C[C@@H]5COCC(N5)[C@H]4F)cn3)c(O)c2)cnn1 (single isomer, unassigned) :: bucket B

Challenge: Which bin should I file COc1cc(-c2ccc(-c3cnc(N(C)[C@@H]4CC5CC[C@H](N5)[C@@H]4F)cn3)c(O)c2)cc(F)n1 (single isomer, unassigned) under?
Response given: bucket B

---

- Test system: MDR1-MDCK cell monolayers
- Condition Description: dog, MDCK-MDR1, 120 min, 5 μM, pH 7.4
Entries annotated with measured MDCK-MDR1: % Recov A-B (%)
The answer is to be given in %; state only the numeric part.

Would you please look over these solved cases?
CN(c1cnc(-c2ccc(-c3cnn(CF)c3)cc2O)cn1)[C@@H]1CC2CC[C@H](N2)[C@@H]1F (single isomer, unassigned) [Compound 42E1] :: 48
COc1cc(-c2ccc(-c3cnc(N(C)[C@@H]4CC5CC[C@H](N5)[C@@H]4F)cn3)c(O)c2)cnn1 (single isomer, unassigned) [Compound 26E1] :: 45
COc1cc(-c2cc(O)c(-c3cnc(N(C)[C@@H]4C[C@@]5(C)CC[C@](C)(N5)[C@@H]4F)cn3)cc2F)cnn1 (single isomer, unassigned) [Compound 64E1] :: 71
CN(c1cnc(-c2cc(F)c(-c3cnn(C)c3)cc2O)cn1)[C@@H]1CC2N[C@H](C1)CC2(F)F (single isomer, unassigned) [Compound 66E2] :: 43
Cn1cnc(-c2cc(O)c(-c3cnc(N(C4CC4)[C@@H]4CC5CC[C@H](N5)[C@@H]4F)cn3)cc2F)cc1=O (single isomer, unassigned) [Compound 50E1] :: 82
CN(c1cnc(-c2cc(F)c(-c3cn[nH]c3)cc2O)cn1)[C@H]1C[C@@H]2CCC(N2)[C@H]1F (single isomer, unassigned) [Compound 40E2] :: 59

Challenge: What measured MDCK-MDR1: % Recov A-B (%) is associated with CN(c1cnc(-c2cc(F)c(-c3cn[nH]c3)cc2O)cn1)[C@H]1C[C@]2(C)CC[C@@](C)(N2)[C@H]1F [Compound 57E2] on MDR1-MDCK cell monolayers?
Response given: 35

Challenge: Would you kindly repeat that for CN(c1cnc(-c2ccc(C3=CCOC3)cc2O)cn1)[C@@H]1CC2CC[C@H](N2)[C@@H]1F (single isomer, unassigned) [Compound 84E1] ?
Response given: 26
